Below is a list of entries, each paired with its recorded log10 Tox50 value.
- Test system: HepG2 cells
- METHOD_DESCRIPTION: HepG2 cytotoxicity counter-screen
- ASSAY_SETUP: cytotoxic activity against HepG2 cells
RESULT_TYPE: log10 Tox50 (log10 of the value in µM)

{"INPUT_SMILES": "COc1ccc(Nc2ncc(C#N)c(Nc3ccccc3C(N)=O)n2)cc1N1CCN(C)CC1.Cl", "TARGET_UNDER_TEST": "HepG2 cells", "log10 Tox50": 0.98}
{"INPUT_SMILES": "COc1ccc(C[C@H](N)C(=O)N[C@H]2[C@@H](O)[C@H](n3cnc4c(N(C)C)ncnc43)O[C@@H]2CO)cc1.Cl", "TARGET_UNDER_TEST": "HepG2 cells", "log10 Tox50": 0.30}
{"INPUT_SMILES": "Cc1ccc(-n2c(Sc3ncnc4sccc34)nnc2N2CCCC2)cc1", "TARGET_UNDER_TEST": "HepG2 cells", "log10 Tox50": 1.86}
{"INPUT_SMILES": "CNC(=O)c1cnc(Nc2ccc(N3CCN(C)CC3)cc2)nc1Nc1ccccc1OC.O=C(O)C(F)(F)F", "TARGET_UNDER_TEST": "HepG2 cells", "log10 Tox50": 1.55}
{"INPUT_SMILES": "O=C(c1ccc(-c2cnc3[nH]cc(-c4ccc(C(=O)N5CCOCC5)cc4)c3c2)cc1)N1CCOCC1", "TARGET_UNDER_TEST": "HepG2 cells", "log10 Tox50": 1.46}
{"INPUT_SMILES": "CNC(=O)c1ccccc1Nc1nc(Nc2ccc(N3CCN(C)CC3)nc2)ncc1C.Cl", "TARGET_UNDER_TEST": "HepG2 cells", "log10 Tox50": 0.54}
{"INPUT_SMILES": "COc1ccc2nc3cc(Cl)ccc3c(NCCCCNc3c4ccc(Cl)cc4nc4ccc(OC)cc34)c2c1", "TARGET_UNDER_TEST": "HepG2 cells", "log10 Tox50": 0.36}
